# measured_on: BRD4-BD2 (Homo sapiens (Human), UniProt O60885)
# experimental_protocol: BRD4 AlphaScreen assay, BRD4-BD2
# experimental_conditions: biotin-labeled tetra-acetylated histone H4 peptide, 75 min, room temperature, read-out: BRD4 BD-2 enzyme IC50
# Protocol: BRD4-BD1 and BRD4-BD2 assays were conducted in white 384-well polystyrene plate in a final volume of 20 μL for BD1 and 40 μL for BD2. Inhibitors were first serially diluted in DMSO and added to the plate wells before the addition of other reaction components. The final concentration of DMSO in the assay was 1.25% (BD1) and 0.83% (BD2). […] After plate sealing, the plate was incubated in the dark at room temperature for 75 min. before reading on a PHERAstar FS plate reader (BMG Labtech). […]
Where a name gives a salt, the structure may show the parent alone.
Listed molecules paired with reported IC50

Some molecules with recorded IC50:
INSERT INTO results (molecule, value_observed) VALUES
  ('CCn1ccc(-c2cc3c(ccc4nnc(C)n43)n2Cc2cc(Cl)cc(CN3CCC3)c2)n1 [Example 188, tris(trifluoroacetate) Salt]', '≤ 0.1 µM'),
  ('COC(=O)Nc1cc2c(cc(C)n2Cc2ccccc2)n2c(C)nnc12 [Example 272]', '≤ 0.1 µM'),
  ('Cc1nnc2ccc3c(cc(-c4cn(C)cn4)n3Cc3ccccc3)n12 [Example 70]', '≤ 0.1 µM'),
  ('Cc1cc2c(cc(N[C@@H]3CCOC3)c3nnc(C)n32)n1Cc1ccccc1 [Example 147]', '≤ 0.1 µM'),
  ('Cc1cc2c(cc(N[C@H]3CC[C@@H](N)CC3)c3nnc(C)n32)n1Cc1ccccc1 [Example 218]', '≤ 0.1 µM'),
  ('Cc1cc2c(cc(NCCCN)c3nnc(C)n32)n1Cc1ccccc1 [Example 257]', '≤ 0.1 µM');

For the molecule Cc1cc2c(cc(Nc3cccnc3)c3nnc(C)n32)n1Cc1ccccc1 [Example 256] , report IC50. ≤ 0.1 µM

Tell me measured IC50 for Cc1cc2c(cc(NS(C)(=O)=O)c3nnc(C)n32)n1Cc1ccccc1 [Example 271] please. ≤ 0.1 µM

For Cc1nnc2ccc3c(cc(-c4ncco4)n3Cc3cc(Cl)cc(CN4CCCC4)c3)n12 [Example 197, bis(trifluoroacetate) Salt] , write its IC50. ≤ 0.1 µM

====

# measured_on: BRD4-BD1 (Homo sapiens (Human), UniProt O60885)
# experimental_protocol: BRD4 AlphaScreen assay, BRD4-BD1
# experimental_conditions: biotin-labeled tetra-acetylated histone H4 peptide, 75 min, room temperature, read-out: BRD4 BD-1 enzyme IC50
pIC50: −log10 of the molar value. Structures can show the parent of a compound that is named as a salt.
parameter: pIC50

INSERT INTO assay_data (compound, value_observed) VALUES
  ('Cc1cc2c(ccc3nnc(C)n32)n1Cc1ccc(CN2CC(O)C2)cc1 [Example 52]', '6.00 to 7.00'),
  ('Cc1cc2c(ccc3nnc(C)n32)n1CCc1ccccc1 [Example 6]', '6.00 to 7.00'),
  ('Cc1cc2c(cc(NC(C)C)c3nnc(C)n32)n1Cc1ccccc1 [Example 263]', '≥ 7.00'),
  ('Cc1nnc2ccc3c(cc(-c4ccsc4)n3Cc3ccccc3)n12 [Example 72]', '≥ 7.00'),
  ('Cc1nnc2ccc3c(cc(-c4ccn(CCC(=O)NC5CN(C)C5)n4)n3Cc3cccc(Cl)c3)n12 [Example 171, bis(trifluoroacetate) Salt]', '≥ 7.00'),
  ('Cc1nnc2ccc3c(cc(C(=O)NCc4ccncc4)n3Cc3ccccc3)n12 [Example 126, bis(trifluoroacetate) Salt]', '6.00 to 7.00');

Next up:
Return pIC50 (reported value) for this compound: Cc1cc2c(cc(NC3CCN(C)C3)c3nnc(C)n32)n1Cc1ccccc1 (racemic) [Example 145, bis(trifluoroacetate) Salt] ≥ 7.00
